Below is a list of entries, each paired with its recorded IC50 at 48 h value.
test: Cell viability assay (MTT); assay type: cell-based, human; settings: human, MDA-MB-231 breast cancer cells; MDA-MB-231, 48 h; read-out: Cytotoxicity IC50
Write the number in µM without appending the unit.

Molecule	IC50 at 48 h / µM
Cc1c(C)c(O)c2c(c1C)C(C)C(=O)OC2=O (centres unmarked) [Compound 4, sclerin]	94.1

input: Reported IC50 at 48 h for COC1=C(c2c[nH]c3ccccc23)C(=O)C(CC=C(C)C)=C(c2c[nH]c3ccccc23)C1=O [Compound 6, kumbicin D] : what is it?
output: 58.2

input: Fill blank: measured IC50 at 48 h of the molecule C=C(C)C1CCC23C(O)CCC(C)C2(C)CCC(C)C3C1c1c[nH]c2ccccc12 (centres unmarked) [Compound 5, 10,23-dihydro-24,25-dehydroaflavinine] is ____.
output: 61.3

input: Recorded IC50 at 48 h for COc1c(OC)c(-c2c[nH]c3ccc(O)cc23)c(OC)c(OC)c1-c1c[nH]c2ccccc12 [Compound 8, petromurin C] , please?
output: 79.9

input: Which IC50 at 48 h value is on record for COc1c(OC)c(-c2c[nH]c3ccccc23)c(OC)c(OC)c1-c1c[nH]c2ccccc12 [Compound 7, asterriquinol D dimethyl ether] ?
output: 85.1

* * *

system: HaCaT keratinocytes; experiment: Cell viability assay (MTT); type: cell-based, human; details: 24 h, 1.0 µM
Quantity Name: cell viability

Here's what some known entries look like.
Compound	Quantity Name	Observed Result
Cc1c(C)c(O)c2c(c1C)C(C)C(=O)OC2=O (stereo not drawn)	cell viability	100.2 ± 6.6 % of control
COc1c(OC)c(-c2c[nH]c3ccc(O)cc23)c(OC)c(OC)c1-c1c[nH]c2ccccc12	cell viability	102.7 ± 7.7 % of control
C=C(C)C1CCC23C(O)CCC(C)C2(C)CCC(C)C3C1c1c[nH]c2ccccc12 (stereo not drawn) [Compound 5, 10,23-dihydro-24,25-dehydroaflavinine]	cell viability	92.3 ± 5.0 % of control
COC1=C(c2c[nH]c3ccccc23)C(=O)C(CC=C(C)C)=C(c2c[nH]c3ccccc23)C1=O	cell viability	97.2 ± 5.7 % of control

input: Entry under review: COc1c(OC)c(-c2c[nH]c3ccccc23)c(OC)c(OC)c1-c1c[nH]c2ccccc12 . Reported cell viability?
output: 100.7 ± 3.8 % of control

input: Requested read-out: cell viability. Entry: Cc1c(C)c(O)c2c(c1C)C(C)(O)OC2=O (stereo not drawn) [Compound 3, sclerolide]
output: 94.4 ± 5.9 % of control

* * *

system: MCF-7 breast cancer cells; assay: Cell viability assay (MTT); type: cell-based, human; settings: MCF-7, 24 h, 10.0 µM
Quantity Name: cell viability

Molecule	Observed Result
COc1c(OC)c(-c2c[nH]c3ccc(O)cc23)c(OC)c(OC)c1-c1c[nH]c2ccccc12	92.8 ± 3.0 % of control
COc1c(OC)c(-c2c[nH]c3ccccc23)c(OC)c(OC)c1-c1c[nH]c2ccccc12	65.4 ± 2.9 % of control
Cc1c(C)c(O)c2c(c1C)C(C)(O)OC2=O (stereo not drawn) [Compound 3, sclerolide]	95.6 ± 2.4 % of control
COC1=C(c2c[nH]c3ccccc23)C(=O)C(CC=C(C)C)=C(c2c[nH]c3ccccc23)C1=O	77.7 ± 7.5 % of control
Cc1c(C)c(O)c2c(c1C)C(C)C(=O)OC2=O (stereo not drawn)	103.4 ± 5.4 % of control

Let us move to another entry and its cell viability.
input: Suppose we examine the molecule C=C(C)C1CCC23C(O)CCC(C)C2(C)CCC(C)C3C1c1c[nH]c2ccccc12 (stereo not drawn) [Compound 5, 10,23-dihydro-24,25-dehydroaflavinine] ; what cell viability value has been reported?
output: 97.0 ± 2.6 % of control

* * *

Recorded cell viability by entry
tested on: MDA-MB-231 breast cancer cells; assay: Cell viability assay (MTT); assay type: cell-based, human; settings: MDA-MB-231, 24 h, 100.0 µM

Previously resolved entries follow.
Compound	Observed Result
COC1=C(c2c[nH]c3ccccc23)C(=O)C(CC=C(C)C)=C(c2c[nH]c3ccccc23)C1=O	32.7 ± 5.2 % of control
COc1c(OC)c(-c2c[nH]c3ccccc23)c(OC)c(OC)c1-c1c[nH]c2ccccc12	53.6 ± 4.2 % of control
COc1c(OC)c(-c2c[nH]c3ccc(O)cc23)c(OC)c(OC)c1-c1c[nH]c2ccccc12	63.7 ±4.8 % of control

input: # get_value(readout='cell viability', item= Cc1c(C)c(O)c2c(c1C)C(C)C(=O)OC2=O (stereo not drawn) )
output: 63.1 ±1.6 % of control

input: What value of cell viability has been recorded for this entry: Cc1c(C)c(O)c2c(c1C)C(C)(O)OC2=O (stereo not drawn) [Compound 3, sclerolide]
output: 68.6 ± 8.3 % of control

input: Given C=C(C)C1CCC23C(O)CCC(C)C2(C)CCC(C)C3C1c1c[nH]c2ccccc12 (stereo not drawn) [Compound 5, 10,23-dihydro-24,25-dehydroaflavinine] , state its recorded cell viability.
output: 21.1 ± 0.9 % of control

* * *

// reported cell viability for each item listed
tested on: H9c2 cardiomyocytes; assay: Cell viability assay (MTT); type: cell-based, rat; conditions: H9c2, 24 h, 1.0 µM

Compound	Quantity Name	Observed Result
C=C(C)C1CCC23C(O)CCC(C)C2(C)CCC(C)C3C1c1c[nH]c2ccccc12 (stereo not drawn) [Compound 5, 10,23-dihydro-24,25-dehydroaflavinine]	cell viability	101.9 ± 2.9 % of control
Cc1c(C)c(O)c2c(c1C)C(C)(O)OC2=O (stereo not drawn) [Compound 3, sclerolide]	cell viability	81.1 ± 3.2 % of control
COc1c(OC)c(-c2c[nH]c3ccc(O)cc23)c(OC)c(OC)c1-c1c[nH]c2ccccc12	cell viability	100.9 ± 1.7 % of control
Cc1c(C)c(O)c2c(c1C)C(C)C(=O)OC2=O (stereo not drawn)	cell viability	101.9 ± 5.8 % of control

input: # input compound: COc1c(OC)c(-c2c[nH]c3ccccc23)c(OC)c(OC)c1-c1c[nH]c2ccccc12 ; wanted: its cell viability
output: 101.5 ± 1.3 % of control

input: Look at this compound and give its reported cell viability. COC1=C(c2c[nH]c3ccccc23)C(=O)C(CC=C(C)C)=C(c2c[nH]c3ccccc23)C1=O
output: 104.0 ± 12.9 % of control

* * *

Form field: cell viability (one value per entry).
tested on: H9c2 cardiomyocytes; experiment: Cell viability assay (MTT); type: cell-based, rat; details: H9c2, 48 h, 10.0 µM

Molecule	Target Under Test	cell viability
Cc1c(C)c(O)c2c(c1C)C(C)C(=O)OC2=O (stereo not drawn) [Compound 4, sclerin]	H9c2 cardiomyocytes	102.6 ± 7.4 % of control

input: Looking for the measured cell viability of COc1c(OC)c(-c2c[nH]c3ccc(O)cc23)c(OC)c(OC)c1-c1c[nH]c2ccccc12 [Compound 8, petromurin C] , can you help?
output: 79.8 ± 4.6 % of control

input: Please report the recorded cell viability for C=C(C)C1CCC23C(O)CCC(C)C2(C)CCC(C)C3C1c1c[nH]c2ccccc12 (stereo not drawn) [Compound 5, 10,23-dihydro-24,25-dehydroaflavinine] .
output: 94.0 ± 3.0 % of control

* * *

Listing of entries alongside the reported cell viability.
tested on: MCF-10A breast epithelial cells; experiment: Cell viability assay (MTT); type: cell-based, human; settings: MCF10A, 48 h, 10.0 µM

input: // fetch MCF-10A breast epithelial cells cell viability for COC1=C(c2c[nH]c3ccccc23)C(=O)C(CC=C(C)C)=C(c2c[nH]c3ccccc23)C1=O
output: 87.4 ± 2.7 % of control

input: Give cell viability (MCF-10A breast epithelial cells) of the following molecule: Cc1c(C)c(O)c2c(c1C)C(C)C(=O)OC2=O (stereo not drawn)
output: 96.8 ± 2.1 % of control

input: Can you look up cell viability on MCF-10A breast epithelial cells for C=C(C)C1CCC23C(O)CCC(C)C2(C)CCC(C)C3C1c1c[nH]c2ccccc12 (stereo not drawn) [Compound 5, 10,23-dihydro-24,25-dehydroaflavinine] ?
output: 93.9 ± 6.4 % of control

input: I'm curious: which cell viability was measured for COc1c(OC)c(-c2c[nH]c3ccccc23)c(OC)c(OC)c1-c1c[nH]c2ccccc12 tested on MCF-10A breast epithelial cells?
output: 93.1 ± 3.6 % of control

input: Lab request: please report cell viability under test system MCF-10A breast epithelial cells for COc1c(OC)c(-c2c[nH]c3ccc(O)cc23)c(OC)c(OC)c1-c1c[nH]c2ccccc12
output: 92.1 ± 2.1 % of control

input: Notebook entry, MCF-10A breast epithelial cells assay: cell viability of Cc1c(C)c(O)c2c(c1C)C(C)(O)OC2=O (stereo not drawn) [Compound 3, sclerolide] = ?
output: 74.4 ± 2.4 % of control

Just for reference, paper PMC12471299 is where these values come from.
